- TGT: MLK-7 (Homo sapiens, UniProt Q9NYL2)
- Construct: GST; His tag
- Sequence (Q9NYL2 1-455 isoform Q9NYL2-2): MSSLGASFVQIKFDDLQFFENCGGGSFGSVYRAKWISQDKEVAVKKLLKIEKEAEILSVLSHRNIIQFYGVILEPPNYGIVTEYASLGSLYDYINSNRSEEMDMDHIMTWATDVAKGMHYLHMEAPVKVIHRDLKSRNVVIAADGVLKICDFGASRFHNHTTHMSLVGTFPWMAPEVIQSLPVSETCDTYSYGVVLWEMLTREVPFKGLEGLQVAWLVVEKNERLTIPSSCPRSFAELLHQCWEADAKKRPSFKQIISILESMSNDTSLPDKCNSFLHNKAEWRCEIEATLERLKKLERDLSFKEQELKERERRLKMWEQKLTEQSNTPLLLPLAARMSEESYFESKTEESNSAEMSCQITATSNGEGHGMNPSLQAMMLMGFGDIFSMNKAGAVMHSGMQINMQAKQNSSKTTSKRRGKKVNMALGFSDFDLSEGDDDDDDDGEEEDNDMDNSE
- PROCEDURE SUMMARY: In vitro assay of purified MLK-7 kinase activity (33P transfer from ATP to myelin basic protein)
- TEST CONTEXT: recombinant GST-tagged MLK-7 at 1 nm, 30 uM ATP, 5 uM MBP substrate, 2 hours room temperature; read-out: MLK7 IC50
MEASURED PROPERTY: IC50

Known results for molecules:
COc1ccc(-c2ccc3c(-c4c(-c5ccccn5)nn5c4CCC5)ccnc3c2)cc1C; ≤ 1 µM
CC(C)(C)SCCNC(=O)c1ccc(-c2ccc3c(-c4c(-c5ccccn5)nn5c4CCC5)ccnc3c2)cc1 (racemic); ≤ 1 µM
O=C(O)c1cccc(-c2ccc3c(-c4c(-c5ccccn5)nn5c4CCC5)ccnc3c2)n1; ≤ 0.1 µM
NS(=O)(=O)c1ccc(-c2ccc3c(-c4c(-c5ccccn5)nn5c4CCC5)ccnc3c2)s1; ≤ 0.1 µM
Oc1cccc(-c2ccc3c(-c4c(-c5ccccn5)nn5c4CCC5)ccnc3c2)c1; ≤ 0.1 µM
O=C(O)c1ccc(-c2ccc3c(-c4c(-c5ccccn5)nn5c4CCC5)ccnc3c2)cc1; ≤ 0.1 µM

Field: next molecule
# lookup: IC50 of Cc1cc(F)ccc1-c1ccc2c(-c3c(-c4ccccn4)nn4c3CCC4)ccnc2c1 ≤ 1 µM
